Hey, just so you know, these numbers are from ChEMBL document CHEMBL4814005.

# System: A 172
# test protocol: Induction of apoptosis in human A 172 cells assessed as upregulation of cleaved PARP at 3 uM after 24 hrs by western blot analysis
# Format: functional, cell-based
Active and inactive are the calls of the source. The calls are words filed in the database; no cut-off is given here.

structure smiles: CC12CC3CC(C)(C1)CC(NCc1ccc(NC(=O)CCCCCCC(=O)NO)cc1)(C3)C2
target entity: A 172
Activity: Active
--
structure smiles: CC12CC3CC(C)(C1)CC(NS(=O)(=O)c1ccc(/C=C/C(=O)NO)cc1)(C3)C2
target entity: A 172
Activity: Active
--
structure smiles: CC12CC3CC(C)(C1)CC(NCc1ccc(/C=C/C(=O)NO)cc1)(C3)C2
target entity: A 172
Activity: Active

###

Below is a list of entries, each paired with its recorded IC50 value.
# target entity: Histone deacetylase 1 (Homo sapiens, UniProt Q13547)
# Sequence (Q13547 whole entry): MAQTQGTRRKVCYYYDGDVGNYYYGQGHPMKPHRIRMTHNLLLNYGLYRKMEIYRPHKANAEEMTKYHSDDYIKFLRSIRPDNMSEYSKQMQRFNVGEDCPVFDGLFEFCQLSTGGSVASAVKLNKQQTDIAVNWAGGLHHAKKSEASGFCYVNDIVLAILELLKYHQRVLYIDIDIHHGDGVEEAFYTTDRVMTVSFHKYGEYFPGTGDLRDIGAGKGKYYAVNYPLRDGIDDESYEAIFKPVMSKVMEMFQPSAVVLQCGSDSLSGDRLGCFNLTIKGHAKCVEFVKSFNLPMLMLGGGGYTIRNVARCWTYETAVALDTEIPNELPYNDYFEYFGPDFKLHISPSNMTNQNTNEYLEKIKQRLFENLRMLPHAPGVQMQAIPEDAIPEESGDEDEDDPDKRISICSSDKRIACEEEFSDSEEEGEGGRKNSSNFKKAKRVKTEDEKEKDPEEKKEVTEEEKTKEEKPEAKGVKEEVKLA
# test protocol: Inhibition of human recombinant HDAC1 expressed in baculovirus infected insect cells using [RHKK(Ac)] fluorogenic substrate
Give just the number in nM; leave the unit off.

Exercise: Param request: IC50 | system Histone deacetylase 1 (Homo sapiens, UniProt Q13547) | item CC12CC3CC(C)(C1)CC(NC(=O)CCCCCC(=O)NO)(C3)C2
Key: 16100

Exercise: Param request: IC50 | system Histone deacetylase 1 (Homo sapiens, UniProt Q13547) | item CC12CC3CC(C)(C1)CC(NC(=O)CCCCCCCC(=O)NO)(C3)C2
Key: 2800

Exercise: Param request: IC50 | system Histone deacetylase 1 (Homo sapiens, UniProt Q13547) | item CC12CC3CC(C)(C1)CC(NCc1cccc(NC(=O)CCCCCCC(=O)NO)c1)(C3)C2
Key: 679

Exercise: Param request: IC50 | system Histone deacetylase 1 (Homo sapiens, UniProt Q13547) | item CC12CC3CC(C)(C1)CC(NS(=O)(=O)c1cccc(/C=C/C(=O)NO)c1)(C3)C2
Key: 1740

###

# Test system: A 172
# test protocol: Induction of apoptosis in human A 172 cells assessed as upregulation of activated caspase 3 protein at 3 uM after 24 hrs by western blot analysis
# Assay type: functional, cell-based
Active and inactive are the calls of the source. The rule behind the calls is not given here.
measured metric: Activity

structure smiles: CC12CC3CC(C)(C1)CC(NCc1ccc(NC(=O)CCCCCCC(=O)NO)cc1)(C3)C2
recorded value: Active
//
structure smiles: CC12CC3CC(C)(C1)CC(NCc1ccc(/C=C/C(=O)NO)cc1)(C3)C2
recorded value: Active
//
structure smiles: CC12CC3CC(C)(C1)CC(NS(=O)(=O)c1ccc(/C=C/C(=O)NO)cc1)(C3)C2
recorded value: Active

###

# target entity: Histone deacetylase 3 (Homo sapiens)
# Sequence (O15379 whole entry): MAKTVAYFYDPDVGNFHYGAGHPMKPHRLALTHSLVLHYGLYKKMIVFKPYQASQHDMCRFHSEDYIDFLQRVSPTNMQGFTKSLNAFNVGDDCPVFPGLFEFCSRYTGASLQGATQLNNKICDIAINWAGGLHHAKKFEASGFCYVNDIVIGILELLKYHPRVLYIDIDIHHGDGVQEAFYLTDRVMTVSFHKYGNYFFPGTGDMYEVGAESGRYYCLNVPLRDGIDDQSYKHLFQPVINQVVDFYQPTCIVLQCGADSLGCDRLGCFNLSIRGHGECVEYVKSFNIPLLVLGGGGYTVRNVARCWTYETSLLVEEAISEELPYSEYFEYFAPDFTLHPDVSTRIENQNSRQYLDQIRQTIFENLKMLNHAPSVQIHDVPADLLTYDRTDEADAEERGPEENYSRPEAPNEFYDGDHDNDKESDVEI
# test protocol: Inhibition of human recombinant HDAC3 using [RHKK(Ac)] fluorogenic substrate
pIC50: −log10 of the molar value.
Would you mind labelling by pIC50? At or over 6 is 1, under is 0.

Use these answered entries as a reference point.
structure smiles: CC12CC3CC(C)(C1)CC(NC(=O)CCCCCCCC(=O)NO)(C3)C2
class label: 0

structure smiles: CC12CC3CC(C)(C1)CC(NS(=O)(=O)c1cccc(/C=C/C(=O)NO)c1)(C3)C2
class label: 0

structure smiles: CC12CC3CC(C)(C1)CC(NC(=O)CCCCCCCCC(=O)NO)(C3)C2
class label: 0

structure smiles: CC12CC3CC(C)(C1)CC(NC(=O)CCCCCCC(=O)NO)(C3)C2
class label: 0

structure smiles: CC12CC3CC(C)(C1)CC(NCc1ccc(/C=C/C(=O)NO)cc1)(C3)C2
class label: 0

As a next step, examine the compound that follows.
Exercise: Entry CC12CC3CC(C)(C1)CC(NCc1cccc(NC(=O)CCCCCCC(=O)NO)c1)(C3)C2 : is its pIC50 no less than 6?
Key: 1

###

Below is a list of entries, each paired with its recorded pIC50 value.
# target entity: Protein deacetylase HDAC6 (Homo sapiens)
# test protocol: Inhibition of human recombinant HDAC6 expressed in baculovirus infected insect cells using [RHKK(Ac)] fluorogenic substrate
# pIC50: negative log10 of molar concentration; output just the value

Recorded results for 4 compounds are shown here.
structure smiles: CC12CC3CC(C)(C1)CC(NC(=O)CCCCCCCC(=O)NO)(C3)C2
pIC50: 6.64
--
structure smiles: CC12CC3CC(C)(C1)CC(NS(=O)(=O)c1ccc(/C=C/C(=O)NO)cc1)(C3)C2
pIC50: 6.99
--
structure smiles: CC12CC3CC(C)(C1)CC(NC(=O)CCCCCCC(=O)NO)(C3)C2
pIC50: 6.44
--
structure smiles: CC12CC3CC(C)(C1)CC(NCc1ccc(NC(=O)CCCCCCC(=O)NO)cc1)(C3)C2
pIC50: 8.27

Exercise: Tell me pIC50 reported for CC12CC3CC(C)(C1)CC(NCc1ccc(/C=C/C(=O)NO)cc1)(C3)C2
Key: 7.11

Exercise: Tell me pIC50 reported for CC12CC3CC(C)(C1)CC(NC(=O)CCCCCCCCC(=O)NO)(C3)C2
Key: 6.57

Exercise: Tell me pIC50 reported for CC12CC3CC(C)(C1)CC(NCc1ccc(C(=O)NO)cc1)(C3)C2
Key: 5.49

###

# Tested on: A 172
# test protocol: Induction of cell cycle arrest in human A 172 cells assessed as accumulation at G0/G1 phase by propidium iodide staining based flow cytometric analysis
# Assay type: functional
# conditions: dose microM <=10

compound: CC12CC3CC(C)(C1)CC(NCc1ccc(/C=C/C(=O)NO)cc1)(C3)C2
Activity: Dose-Dependent Effect

compound: CC12CC3CC(C)(C1)CC(NS(=O)(=O)c1ccc(/C=C/C(=O)NO)cc1)(C3)C2
Activity: Dose-Dependent Effect

compound: CC12CC3CC(C)(C1)CC(N)(C3)C2.Cl [MEMANTINE HYDROCHLORIDE]
Activity: 57%

compound: CC12CC3CC(C)(C1)CC(NCc1ccc(NC(=O)CCCCCCC(=O)NO)cc1)(C3)C2
Activity: Dose-Dependent Effect

###

# target entity: Histone deacetylase 8 (Homo sapiens)
# Sequence (Q9BY41 whole entry): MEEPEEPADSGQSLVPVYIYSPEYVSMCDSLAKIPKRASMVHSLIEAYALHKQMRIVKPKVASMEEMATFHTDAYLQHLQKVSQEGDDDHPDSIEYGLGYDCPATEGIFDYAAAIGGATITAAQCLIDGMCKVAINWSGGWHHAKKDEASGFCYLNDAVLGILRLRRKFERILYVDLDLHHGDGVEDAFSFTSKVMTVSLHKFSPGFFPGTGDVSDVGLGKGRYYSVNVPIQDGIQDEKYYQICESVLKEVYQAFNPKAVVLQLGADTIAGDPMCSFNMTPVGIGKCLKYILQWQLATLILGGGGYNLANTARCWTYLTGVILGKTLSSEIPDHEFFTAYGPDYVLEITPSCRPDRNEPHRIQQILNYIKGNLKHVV
# test protocol: Inhibition of human recombinant HDAC8 using [RHKK(Ac)] fluorogenic substrate
Each entry belongs to exactly one class, chosen by where its IC50 falls: bottom: < 700 nM; middle: ≥ 700 nM and < 4000 nM; top: ≥ 4000 nM

Use these answered entries as a reference point.
structure smiles: CC12CC3CC(C)(C1)CC(NC(=O)CCCCCCC(=O)NO)(C3)C2
target entity: Histone deacetylase 8 (Homo sapiens)
class label: middle
//
structure smiles: CC12CC3CC(C)(C1)CC(NCc1ccc(NCc4ccc(C(=O)NO)cc4)cc1)(C3)C2
target entity: Histone deacetylase 8 (Homo sapiens)
class label: top
//
structure smiles: CC12CC3CC(C)(C1)CC(NCc1ccc(C(=O)NO)cc1)(C3)C2
target entity: Histone deacetylase 8 (Homo sapiens)
class label: top

As a next step, examine the compound that follows.
Exercise: Kindly state the category for this compound: CC12CC3CC(C)(C1)CC(NCc1ccc(/C=C/C(=O)NO)cc1)(C3)C2
Key: middle

###

# test protocol: Permeability of compound by PAMPA-BBB assay
measured metric: Papp (×10⁻⁶ cm/s)
Give just the number in ×10⁻⁶ cm/s; leave the unit off.

Exercise: Tell me Papp reported for CC12CC3CC(C)(C1)CC(NCc1ccc(NC(=O)CCCCCCC(=O)NO)cc1)(C3)C2
Key: 339

###

# target entity: Histone deacetylase 1 (Homo sapiens, UniProt Q13547)
# test protocol: Inhibition of human recombinant HDAC1 expressed in baculovirus infected insect cells using [RHKK(Ac)] fluorogenic substrate
Below is a list of entries, each paired with its recorded IC50 value.
Give just the number in µM; leave the unit off.

Recorded results for 3 compounds are shown here.
structure smiles: CC12CC3CC(C)(C1)CC(NC(=O)CCCCCCC(=O)NO)(C3)C2
measured metric: IC50
recorded value: 4.43
--
structure smiles: CC12CC3CC(C)(C1)CC(NCc1ccc(NCc4ccc(C(=O)NO)cc4)cc1)(C3)C2
measured metric: IC50
recorded value: 11
--
structure smiles: CC12CC3CC(C)(C1)CC(NS(=O)(=O)c1ccc(/C=C/C(=O)NO)cc1)(C3)C2
measured metric: IC50
recorded value: 0.95

Exercise: Tell me IC50 reported for CC12CC3CC(C)(C1)CC(NC(=O)CCCCCCCCC(=O)NO)(C3)C2
Key: 5.24

Exercise: Tell me IC50 reported for CC12CC3CC(C)(C1)CC(NCc1ccc(NC(=O)CCCCCCC(=O)NO)cc1)(C3)C2
Key: 0.347

###

Below is a list of entries, each paired with its recorded pIC50 value.
# target entity: Protein deacetylase HDAC6 (Homo sapiens)
# Sequence (Q9UBN7 whole entry): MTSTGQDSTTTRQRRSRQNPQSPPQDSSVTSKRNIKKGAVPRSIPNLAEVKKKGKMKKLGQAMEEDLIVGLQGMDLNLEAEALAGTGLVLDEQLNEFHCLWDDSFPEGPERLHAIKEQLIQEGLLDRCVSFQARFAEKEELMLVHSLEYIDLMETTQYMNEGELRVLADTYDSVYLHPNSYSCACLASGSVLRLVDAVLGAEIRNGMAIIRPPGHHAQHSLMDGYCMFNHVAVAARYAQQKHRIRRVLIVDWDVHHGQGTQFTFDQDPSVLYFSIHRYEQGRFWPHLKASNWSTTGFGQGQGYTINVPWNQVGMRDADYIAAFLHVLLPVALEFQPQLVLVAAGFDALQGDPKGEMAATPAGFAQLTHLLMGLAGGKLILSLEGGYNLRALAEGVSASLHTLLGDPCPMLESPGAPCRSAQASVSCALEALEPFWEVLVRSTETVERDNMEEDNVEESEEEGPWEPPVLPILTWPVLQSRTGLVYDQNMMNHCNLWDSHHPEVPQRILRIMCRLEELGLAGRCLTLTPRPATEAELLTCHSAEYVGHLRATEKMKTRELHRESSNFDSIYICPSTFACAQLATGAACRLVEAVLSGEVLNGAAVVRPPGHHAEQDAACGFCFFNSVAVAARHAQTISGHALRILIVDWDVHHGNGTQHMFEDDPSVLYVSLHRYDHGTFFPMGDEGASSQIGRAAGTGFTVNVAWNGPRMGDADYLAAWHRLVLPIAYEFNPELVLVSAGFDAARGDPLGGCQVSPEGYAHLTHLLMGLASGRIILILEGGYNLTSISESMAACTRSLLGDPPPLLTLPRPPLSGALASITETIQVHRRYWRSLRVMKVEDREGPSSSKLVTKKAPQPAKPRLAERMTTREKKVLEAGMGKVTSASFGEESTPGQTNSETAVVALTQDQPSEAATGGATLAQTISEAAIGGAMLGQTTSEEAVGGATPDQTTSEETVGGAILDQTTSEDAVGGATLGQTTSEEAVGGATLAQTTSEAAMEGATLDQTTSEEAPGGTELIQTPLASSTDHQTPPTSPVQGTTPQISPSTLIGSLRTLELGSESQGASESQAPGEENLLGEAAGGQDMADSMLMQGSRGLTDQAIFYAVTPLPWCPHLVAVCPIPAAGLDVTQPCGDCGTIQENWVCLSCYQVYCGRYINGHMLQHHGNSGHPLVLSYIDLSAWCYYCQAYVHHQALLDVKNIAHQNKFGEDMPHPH
# test protocol: Inhibition of human recombinant HDAC6 expressed in baculovirus infected insect cells using [RHKK(Ac)] fluorogenic substrate
# pIC50: negative log10 of molar concentration; output just the value

Recorded results for 3 compounds are shown here.
structure smiles: CC12CC3CC(C)(C1)CC(NCc1ccc(NCc4ccc(C(=O)NO)cc4)cc1)(C3)C2
pIC50: 7.11
--
structure smiles: CC12CC3CC(C)(C1)CC(NCc1cccc(NC(=O)CCCCCCC(=O)NO)c1)(C3)C2
pIC50: 7.22
--
structure smiles: CC12CC3CC(C)(C1)CC(NC(=O)CCCCCC(=O)NO)(C3)C2
pIC50: 6.69

Next, consider the following compound.
Exercise: Tell me pIC50 reported for CC12CC3CC(C)(C1)CC(NS(=O)(=O)c1cccc(/C=C/C(=O)NO)c1)(C3)C2
Key: 7.03
